target: Neurogenic locus notch homolog protein 2 (Homo sapiens) (UniProt Q04721); test: Notch2 binders on small-molecule microarrays, primary screen, biochemical, small-molecule microarray, 635 nm fluorescence, stem cell growth factors (AID 1073); conditions: Notch2 binding, higher = more signal
Sequence (Q04721 whole entry, looked up): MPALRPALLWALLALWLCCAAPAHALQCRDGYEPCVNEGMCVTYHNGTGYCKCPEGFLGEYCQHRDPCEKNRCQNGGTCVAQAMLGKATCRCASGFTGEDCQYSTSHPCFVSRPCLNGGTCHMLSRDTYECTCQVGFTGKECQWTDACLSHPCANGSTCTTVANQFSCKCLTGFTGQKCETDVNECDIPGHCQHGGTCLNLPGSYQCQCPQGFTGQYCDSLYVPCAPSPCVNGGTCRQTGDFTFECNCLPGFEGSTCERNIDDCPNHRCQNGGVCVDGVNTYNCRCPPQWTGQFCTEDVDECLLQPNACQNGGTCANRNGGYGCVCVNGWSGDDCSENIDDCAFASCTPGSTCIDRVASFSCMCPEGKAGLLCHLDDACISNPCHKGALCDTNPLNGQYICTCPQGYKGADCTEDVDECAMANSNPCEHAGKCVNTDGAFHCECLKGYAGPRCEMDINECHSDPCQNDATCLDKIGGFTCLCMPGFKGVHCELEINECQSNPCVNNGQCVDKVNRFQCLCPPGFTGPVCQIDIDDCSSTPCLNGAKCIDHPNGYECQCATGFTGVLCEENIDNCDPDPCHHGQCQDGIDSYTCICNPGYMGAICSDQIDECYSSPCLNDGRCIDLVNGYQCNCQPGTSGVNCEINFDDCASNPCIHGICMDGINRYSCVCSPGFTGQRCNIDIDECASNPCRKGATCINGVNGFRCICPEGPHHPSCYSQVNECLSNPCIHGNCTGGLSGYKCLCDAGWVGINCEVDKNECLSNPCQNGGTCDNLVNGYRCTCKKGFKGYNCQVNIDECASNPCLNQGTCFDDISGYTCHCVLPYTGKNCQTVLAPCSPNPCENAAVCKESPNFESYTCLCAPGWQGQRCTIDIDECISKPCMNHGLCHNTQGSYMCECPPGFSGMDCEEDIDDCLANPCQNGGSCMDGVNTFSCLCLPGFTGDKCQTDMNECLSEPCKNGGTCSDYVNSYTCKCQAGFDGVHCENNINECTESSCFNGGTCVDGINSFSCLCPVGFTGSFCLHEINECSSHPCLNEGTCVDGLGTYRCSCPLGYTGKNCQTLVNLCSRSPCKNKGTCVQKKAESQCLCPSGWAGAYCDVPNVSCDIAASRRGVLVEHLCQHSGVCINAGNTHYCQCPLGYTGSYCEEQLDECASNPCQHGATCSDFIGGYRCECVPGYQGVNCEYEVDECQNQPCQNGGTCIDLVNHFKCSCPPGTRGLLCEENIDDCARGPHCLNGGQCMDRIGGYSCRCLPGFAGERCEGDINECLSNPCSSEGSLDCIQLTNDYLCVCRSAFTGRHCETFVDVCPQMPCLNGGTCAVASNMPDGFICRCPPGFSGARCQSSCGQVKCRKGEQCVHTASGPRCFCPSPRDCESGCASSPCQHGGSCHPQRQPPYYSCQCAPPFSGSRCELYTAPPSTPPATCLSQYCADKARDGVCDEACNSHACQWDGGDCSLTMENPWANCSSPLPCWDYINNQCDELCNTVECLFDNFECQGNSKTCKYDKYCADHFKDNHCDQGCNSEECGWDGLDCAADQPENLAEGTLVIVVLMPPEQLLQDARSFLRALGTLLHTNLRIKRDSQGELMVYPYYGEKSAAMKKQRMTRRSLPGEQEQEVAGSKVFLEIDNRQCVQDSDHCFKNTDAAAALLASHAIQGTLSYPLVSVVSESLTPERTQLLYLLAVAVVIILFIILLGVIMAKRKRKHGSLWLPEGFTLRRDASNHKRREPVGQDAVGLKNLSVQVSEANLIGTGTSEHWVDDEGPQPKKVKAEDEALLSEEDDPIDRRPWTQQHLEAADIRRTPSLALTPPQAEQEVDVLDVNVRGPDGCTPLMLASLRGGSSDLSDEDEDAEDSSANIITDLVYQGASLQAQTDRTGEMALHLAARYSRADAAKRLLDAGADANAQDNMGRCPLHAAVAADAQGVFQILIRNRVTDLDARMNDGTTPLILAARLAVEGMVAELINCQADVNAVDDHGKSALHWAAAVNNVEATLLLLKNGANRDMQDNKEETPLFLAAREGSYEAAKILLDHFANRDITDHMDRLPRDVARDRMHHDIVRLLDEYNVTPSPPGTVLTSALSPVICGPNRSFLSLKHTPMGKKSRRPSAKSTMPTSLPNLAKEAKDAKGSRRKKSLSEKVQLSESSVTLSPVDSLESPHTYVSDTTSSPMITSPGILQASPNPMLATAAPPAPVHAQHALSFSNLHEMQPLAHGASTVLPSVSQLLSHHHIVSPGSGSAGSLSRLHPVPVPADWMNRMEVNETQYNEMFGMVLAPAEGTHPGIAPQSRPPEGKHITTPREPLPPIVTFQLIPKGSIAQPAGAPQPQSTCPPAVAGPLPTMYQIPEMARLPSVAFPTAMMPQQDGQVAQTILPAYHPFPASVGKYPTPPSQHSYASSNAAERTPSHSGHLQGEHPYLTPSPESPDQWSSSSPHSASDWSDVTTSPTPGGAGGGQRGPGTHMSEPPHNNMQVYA
Assign class by composite z-score: not lower than 1 means 1; lower than 1 means 0.

Dear colleague, could you confirm whether `CN(C)CCCC[C@@H]1NC(=O)[C@H]2C[C@@H](C(=O)NCCCCCNC(=O)CS)[C@@H](c3cccc(OCCO)c3)N2C1=O` has composite z-score at or above 1?
0

Then what about the compound `C=CCNC(=O)[C@@H]1[C@H]2C(=O)O[C@H](c3ccccc3)[C@H](c3ccccc3)N2[C@H](c2ccc(OCCO)cc2)[C@@]12C(=O)Nc1ccc(C#Cc3ccc(OC)cc3)cc12` ?
1

Then what about the compound `O=C1O[C@@H](c2ccccc2)[C@@H](c2ccccc2)N2[C@@H](c3ccc(OCCO)cc3)[C@]3(C(=O)Nc4ccccc43)[C@@H](C(=O)NC[C@H](O)c3ccccc3)[C@H]12` ?
1

Okay, and CCCCC(O)C1C=CC2C(=O)N(c3ccccc3)C(=O)C2N1Nc1ccccc1F (stereo unspecified) ?
0

Now the same for `NC(=O)[C@@H]1[C@H]2C(=O)O[C@H](c3ccccc3)[C@H](c3ccccc3)N2[C@H](c2ccc(O)cc2)[C@@]12C(=O)Nc1ccc(C#CC3(O)CCCCCC3)cc12`
0

----------
assay: inhibitors of hydroxyurea-induced Chk1 phosphorylation, primary screen, imaging, HeLa, phospho-Chk1 nuclear intensity (AID 1187); conditions: hydroxyurea-induced phospho-Chk1 immunofluorescence imaging, higher = more signal; further: test concentration not given here
Consider the following molecules; for each one, report its z-score.
Output: the number by itself.

Which value of z-score has been reported for `NC(=O)[C@@H]1[C@H]2C(=O)O[C@H](c3ccccc3)[C@H](c3ccccc3)N2[C@H](c2ccc(O)cc2)[C@@]12C(=O)Nc1ccc(C#CC3(O)CCCCCC3)cc12` in the records?
0.0812

Entry O=C1C2C=CC(C(O)C(c3ccccc3)c3ccccc3)N(n3cnnc3)C2C(=O)N1Cc1ccccc1 (centres undefined) please
-0.402

Can you check `CC(=O)NCCCC[C@@H]1NC(=O)[C@@H]2C[C@H](C(=O)NCCCCCCNC(=O)CS)[C@H](c3cccc(OCCO)c3)N2C1=O` next?
-0.0198

Also, CN1C2C=C(CCCO)C(C3C(=O)N(C(N)=O)C(=O)C32)C1c1ccc(CN2CCCC2)cc1 (centres undefined) please.
-0.0741

----------
target: NADPH oxidase 4 (Homo sapiens) (UniProt Q9NPH5); test: NOX4-dependent H2O2 signal modulators, primary screen, NOX inhibitor project, cell-based, HEK293-NOX4, tetracycline-induced, Amplex Red fluorescence (AID 1160); conditions: 45 min, higher = more signal, called active from +8 up or from −8 down
Sequence (Q9NPH5 whole entry, looked up): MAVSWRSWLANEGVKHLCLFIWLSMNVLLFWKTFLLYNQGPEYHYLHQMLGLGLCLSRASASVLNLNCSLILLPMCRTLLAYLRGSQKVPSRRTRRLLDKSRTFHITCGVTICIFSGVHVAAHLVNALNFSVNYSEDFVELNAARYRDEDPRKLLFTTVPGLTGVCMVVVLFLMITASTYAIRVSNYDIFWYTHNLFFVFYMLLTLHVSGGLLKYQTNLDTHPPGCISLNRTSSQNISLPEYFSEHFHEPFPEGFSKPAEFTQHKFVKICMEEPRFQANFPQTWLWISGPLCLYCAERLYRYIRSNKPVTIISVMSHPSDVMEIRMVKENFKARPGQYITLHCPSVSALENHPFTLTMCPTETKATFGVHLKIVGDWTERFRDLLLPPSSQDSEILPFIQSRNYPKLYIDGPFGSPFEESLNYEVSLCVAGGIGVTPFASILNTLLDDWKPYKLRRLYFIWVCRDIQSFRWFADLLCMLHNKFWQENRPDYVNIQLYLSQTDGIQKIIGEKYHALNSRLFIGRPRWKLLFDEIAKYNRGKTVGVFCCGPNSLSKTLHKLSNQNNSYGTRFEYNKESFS
Active and inactive are the calls of the source.
Hi there, I'd appreciate the recorded z-score for every entry that follows.

# z-score lookup, item CC1(C)[C@@H]2CC(C(O)C3C=CC4C(=O)N(c5ccccc5)C(=O)C4N3Nc3ccccc3)=C[C@H]1C2 (stereo partly drawn)
-2.94 (inactive)

Note, next up: `C=CCOC(=O)[C@H]1[C@@H]2C(=O)O[C@@H](c3ccccc3)[C@@H](c3ccccc3)N2[C@@H](c2ccc(OCCOC(=O)[C@H]3C[C@H]4C(=O)N5CCC[C@H]5C(=O)N4[C@H]3c3ccc(O)cc3)cc2)[C@]12C(=O)Nc1ccc(I)cc12`
-1.09 (inactive)

// next record `O=C1O[C@H](c2ccccc2)[C@H](c2ccccc2)N2[C@H]1[C@@H](C(=O)O)[C@]1(C(=O)Nc3ccc(C#CC4=CCCCC4)cc31)[C@H]2c1ccccc1OCCO`
-1.94 (inactive)

----------
target: Left-right determination factor 2 (Homo sapiens) (UniProt O00292); assay: LEFTY2 binders on small-molecule microarrays, primary screen, biochemical, small-molecule microarray, 635 nm fluorescence scan (AID 1110); settings: LEFTY2 binding, higher = more signal
Sequence (O00292 whole entry, looked up): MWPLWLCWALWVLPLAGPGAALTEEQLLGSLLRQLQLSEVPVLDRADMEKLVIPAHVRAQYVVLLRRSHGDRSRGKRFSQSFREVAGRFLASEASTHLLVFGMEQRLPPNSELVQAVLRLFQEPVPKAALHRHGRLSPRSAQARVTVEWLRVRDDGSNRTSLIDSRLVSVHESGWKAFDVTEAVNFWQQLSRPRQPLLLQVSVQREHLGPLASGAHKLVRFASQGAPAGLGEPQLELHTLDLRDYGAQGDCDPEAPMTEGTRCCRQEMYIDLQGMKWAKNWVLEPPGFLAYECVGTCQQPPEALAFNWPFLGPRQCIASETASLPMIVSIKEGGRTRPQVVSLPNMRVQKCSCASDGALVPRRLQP
metric: composite z-score
Answer with a number only.

Form entry - test system: Left-right determination factor 2 (Homo sapiens) (UniProt O00292); read-out: composite z-score; compound: CC(C)(C)OC(=O)CC[C@@]1(C(=O)NCC(O)CO)N=C(c2ccc(OCCCO)cc2)O[C@@H]1c1ccccc1N=[N+]=[N-] (some centres not stated)
-0.586

Quick one: `C=CCOC(=O)[C@@H]1[C@H]2C(=O)O[C@H](c3ccccc3)[C@H](c3ccccc3)N2[C@H](c2ccc(OCCOC(=O)[C@@H]3C[C@@H]4C(=O)N[C@@H](Cc5ccccc5)C(=O)N4[C@@H]3c3ccc(O)cc3)cc2)[C@@]12C(=O)Nc1ccc(I)cc12`
0.56

Can you check `COCCCNC(=O)[C@@]1(Cc2ccccc2)N=C(c2ccc(OCCCO)cc2)O[C@H]1c1ccccc1` next?
-0.582

`CCCCCCC#C[Si](O[C@H](c1ccccc1)c1cn([C@H](CO)Cc2ccccc2)nn1)(C(C)C)C(C)C` , same question.
-0.154

Queued: COC(=O)C=C(CC(O)c1cccc(Cl)c1)OC (configuration not stated)
-0.17

Field entry: `C=CCOC(=O)[C@H]1[C@@H]2C(=O)O[C@@H](c3ccccc3)[C@@H](c3ccccc3)N2[C@@H](c2ccc(OCCOC(=O)[C@H]3C[C@H]4C(=O)N[C@@H](CC(C)C)C(=O)N4[C@H]3c3ccc(O)cc3)cc2)[C@]12C(=O)Nc1ccc(I)cc12`
0.644

Now the compound CCOC1=C2C(CN(S(=O)(=O)c3ccc(C)cc3)C2c2ccc(C)cc2)C2C(=O)N(c3ccccc3)C(=O)C2C1 (configuration not stated)
0.349

----------
Would you mind telling me the reported z-score of each entry?
assay: cell viability in Huh7 cells, primary screen, cytotoxicity control for HCV replication inhibitor project, CellTiter-Glo luminescence, basal, 48 h (AID 1143); settings: Huh7 HCV replicon, higher = more signal, called active from +8 up or from −8 down;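 further: Huh7 hepatoma cells carrying a hepatitis C replication reporter with no stimulus; test concentration not given here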
Active and inactive are the calls of the source.

What value of z-score has been reported for the following compound? Cc1ccc(C(C)CC(O)C2C=CC3C(=O)N(c4ccccc4)C(=O)C3N2Nc2ccc([N+](=O)[O-])cc2)o1 (centres undefined)
-0.344 (inactive)

Note, next up: `C=CCOC(=O)[C@H]1[C@@H]2C(=O)O[C@@H](c3ccccc3)[C@@H](c3ccccc3)N2[C@@H](c2ccc(OCCOC(=O)[C@H]3C[C@H]4C(=O)N5CCC[C@H]5C(=O)N4[C@H]3c3ccc(O)cc3)cc2)[C@]12C(=O)Nc1ccc(I)cc12`
-2.04 (inactive)

`COCCCN1C(=O)[C@@]2(Cc3ccccc31)c1ccccc1C(=O)N(Cc1ccccc1C(F)(F)F)[C@H]2c1ccc(CO)cc1` ?
0.287 (inactive)

Check CS(=O)(=O)CCOC(=O)C1=CC(CCCO)=CC(c2ccc(CN3CCCC3)cc2)N(Cc2cc3c(cc2Br)OCO3)C=C1C(=O)OCCS(C)(=O)=O (centres undefined) too.
-0.277 (inactive)

Next up: `CC[C@@H]1C=C(C(=O)O)[C@H](c2ccco2)N1S(=O)(=O)c1ccc(C)cc1`
0.433 (inactive)

Param item: CN1C(=O)C2C=CC(C(O)Cc3ccccc3)N(Nc3ccccc3)C2C1=O (centres undefined)
0.329 (inactive)

Note, next up: `C=C(/C(=C/C[C@@H](OC(C)=O)c1ccc(OCCO)cc1)c1cnc2ccccc2c1)C(C)C`
-1.07 (inactive)

Next compound: `C=CCN1C(=O)[C@]2(O[C@H](CCO)[C@@H]([Si](C)(C)c3ccc(OC)cc3)[C@@H]2C)c2cc(N3CCCCC3=O)ccc21`
-5.37 (inactive)

Next up: `O=C(NCc1ccc(F)cc1)[C@H]1C[C@H]2C(=O)N[C@@H](Cc3ccccc3)C(=O)N2[C@H]1c1ccc(O)cc1`
-0.411 (inactive)

----------
assay: fission yeast growth modulation, primary screen, strain 972, OD600, 24 h, no modulator (AID 1090);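 further: basal condition with compound alone and no growth modifier present; test concentration not given here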; conditions: S. pombe 972 growth, higher = more signal, called active from +8 up or from −8 down
Give measured z-score for each item. Keep answers brief.
Lab note: jot down the number only; don't add units.

Param item = `COCCOC(=O)N1C(=O)[C@@]2(c3ccccc31)[C@H](c1ccccc1OCCO)N1[C@H](c3ccccc3)[C@H](c3ccccc3)OC(=O)[C@H]1[C@@H]2C(=O)Nc1nc2ccccc2s1` ; retrieve measured z-score.
0.981

Try this compound too: `CCCCc1cn(C[C@H](Cc2ccccc2)NC(=O)N[C@H](CO)CCc2oc(C(C)=O)c(C(=O)OC)c2C(=O)OC)nn1`
-0.0326

Note, next up: `Cc1ccc(S[C@]2(C(=O)NC3CC3)CC(=O)N(C3Cc4ccccc4C3)[C@@H]2c2ccc(CO)cc2)cc1`
-0.945

Could you do the same for `COCCOC(=O)N1C(=O)[C@@]2(c3cc(C#CCCO)ccc31)[C@H](C(=O)Nc1nc3ccccc3s1)[C@H]1C(=O)O[C@H](c3ccccc3)[C@H](c3ccccc3)N1[C@@H]2c1ccc(OCCO)cc1` , please?
1.09

Now consider CN1C2C=C(CCCO)C(C3C(=O)N(C(N)=O)C(=O)C32)C1c1ccc(CN2CCCC2)cc1 (stereo unspecified) and answer again.
0.715

What about `COCCOC(=O)N1C(=O)[C@@]2(c3cc(C#CCCO)ccc31)[C@H](C(=O)N1CCN(c3ncccn3)CC1)[C@H]1C(=O)O[C@H](c3ccccc3)[C@H](c3ccccc3)N1[C@@H]2c1ccccc1OCCO` ?
0.411

Ref: PubChem BioAssay
